# experimental.details: Biodistribution after day 9 in mouse heart
# Type: ADME, organism-based
assay.readout: concentration at 9 day (ng/g)

(a) C=CC1=C(C)c2cc3nc(cc4[nH]c(cc5[nH]c(cc1n2)c(C)c5CCC(=O)NC1C(O)OC(CO)C(O)C1O)c(CCC(=O)NC1C(O)OC(CO)C(O)C1O)c4C)C(C=C)=C3C (configuration not stated) [PORPHYRIN]
(b) CCc1c(CC)c2cc3nc(cc4[nH]c(c(C)c4CC)c4[nH]c(cc5nc(cc1[nH]2)C(CCC(=O)NC1C(O)OC(CO)C(O)C1O)=C5C)c(CC)c4C)C(C)=C3CCC(=O)NC1C(O)OC(CO)C(O)C1O (configuration not stated)
Endpoint returns the identifier whose concentration at 9 day is numerically larger, either a or b . State the label of the item chosen.
b
(b: 6000 ng/g, a: 2400 ng/g)
